Hey, just so you know, these numbers are from PubChem BioAssay (EPA / NIEHS).

- Protocol Notes: CCTE_Simmons_CellTiterGLO_HEK293T: Viability Assessment in CCTE's Assays for Thyroperoxidase (TPO) Inhibition, Simmons Lab (AID 2283665);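 note: cells exposed to compound for 24 h before readout; actives reduce ATP signal below DMSO vehicle meaning cytotoxicity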
Results filed as inconclusive are left out. Activity calls are given as the source filed them. Rule for the calls: active = hit-call score of the fitted dose curve at least 0.9, where 1 is the maximum; inconclusive = response in the unintended direction; inactive = score below 0.9.
Quantity Measured: AC50

Noted for C#C[C@]1(O)CC[C@H]2[C@@H]3CCC4=CC(=O)CC[C@@H]4[C@H]3CC[C@@]21C : its AC50 reads 66 µM (active)

Noted for O=c1c(-c2ccc(O)cc2)coc2cc(O)ccc12 : its AC50 reads 0.393 µM (active)

Noted for CC#C[C@]1(O)CC[C@H]2[C@@H]3CCC4=CC(=O)CCC4=C3[C@@H](c3ccc(N(C)C)cc3)C[C@@]21C : its AC50 reads 17.7 µM (active)
